# System: erythrocytes infected with P. falciparum field isolate 9605
# Procedure Text: flow cytometry, staining of IEs

Binder | Units Symbol | % parasite recognition
MGD47 (antibody) VH: QVRLQESGPGLVKPSGTLSLTCTVSGGSISGYKWWSWVRQAPGKGLEWIGQVYDDGDTNYNPDLKGRVALSVDKSKSRFSLSLASVTAADTAIYFCATISPLRPQSDTGDLPRPSISAEPGTAIPLGSQVTFVCRGPIGVQTFRLERESRALYNDSEDVSQVSPSASEARFRIDSVSEGNAGPYRCIYYKARRWSDQSDYLELLVKGEDVTWALPQSQLAPRACPQEDLNISTDIFSTNVWGKGTTVTVSS VL: AIRMTQSPASLSASVGDRVTITCRTSQDVGNYLDWYQQKPGKAPKLLIHGASTLQAGVPSRFNGSGSGTDFTLGISCVQSGDFAIYYCQQYYTSPPVFGQGTRLEIK | % | 28.7
MGD23 (antibody) VH: QVQLQESGPGLVKPSGTLSLTCSVSGGSISSNKWWSWVRQSPGKGLEWIGEVYQTGITNYNPSLKGRVTMSVDKSKNQFSLRLTSVTAADTAVYYCATISQLRPQGDTEDLPRPSLSAEPGTVIPLGSHVTFVCRGPAGVETFRLERESRFTYNDTEDVSQASPSESEARFRIDSVSEGNAGPYRCLYYKARKWSDQSDYLELLVKGADVTWALPQSQLAPRACPQGELRISTDVFSMNVWGNGTTVTVSS VL: AVRVTQSPTSLSASTGDRVTITCRTSQYVGNYLDWYQQKPGKAPKLLIHGVSTLQNGVPSRFSGSASGTDFTLNITCLQSEDSATYYCQQYYTSPPDFGQGTRLEIK | % | 14.7
MGC34 (antibody) VH: EVQLVESGGGLVQPGGSLRLSCEASGFTFSSYWMSWVRQAPGKGLEWVANINQDGSQKDYVDSVKGRFTISRDTAKNSLYLQMNSLRAEDTAVYYCARERLCTDDSHMHGEEDLPRPSISAEPGTVIPLGSHVTFVCRGPVGIHTFRLERESRSLYTETEDVTQVSPSESEARFRIESVTEGNAGLYRCVYYKPPKWSEQSDYLELLVKGEDVTRALFTHCGGDGKESDYHMDVWGKGTTVTVSS VL: QTVVTQEPSLTVSPGGTVTLTCASSTGAVTSGYYPSWFHQKPGQPVRALIYSTSKTHSWTPARFSGSLLGGKAALTLSNVQPEDEADYYCLLYYGGPQPWVFGGGTKLTVQ | % | 23.7
